Values compiled from patent US20080095772A1.

Molecular target: T1, human PTHrP (1-34) (human)
T1 construct: Synthetic peptide (Peninsula; Peptide Research Institute), coated on ELISA plates at 1 µg/ml or used in solid phase RIA; also called human parathyroid hormone related protein (1-34)
Assay: ELISA on plate-coated human PTHrP (1-34) (1 µg/ml); bound antibody detected with alkaline phosphatase-conjugated goat anti-human IgG; O.D. 405/620
measurement kind: binding result

[[record]]
binder = "humanized #23-57-137-1 antibody, H chain version a, L chain version o (antibody, V domains shown, Human Cγ1 and human Cλ C regions; Expressed in COS-7) VH: QVQLVESGGGVVQPGRSLRLSCAASGFTFSSYGMSWVRQAPGKGLEWVATISSGGSYTYYPDSVKGRFTISRDNSKNTLYLQMNSLRAEDTAVYYCARQTTMTYFAYWGQGTLVTVSS VL: QLVLTQSPSASASLGASVKLTCTLSSQHSTYTIEWYQQQPEKGPRYVMDLKQDGSHSTGDGIPDRFSGSSSGAERYLTISSLQSEDEADYYCGVGDTIKEQFVYVFGGGTKLTVLG"
val = "binds"

[[record]]
binder = "humanized #23-57-137-1 antibody, H chain version a, L chain version l (antibody, V domains shown, Human Cγ1 and human Cλ C regions; Expressed in COS-7) VH: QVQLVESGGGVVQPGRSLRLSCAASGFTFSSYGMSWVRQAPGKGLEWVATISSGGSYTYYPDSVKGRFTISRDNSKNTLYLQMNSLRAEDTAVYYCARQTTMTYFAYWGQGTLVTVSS VL: QLVLTQSPSASASLGASVKLTCTLSSQHSTYTIEWYQQQPEKGPKYVMDLKQDGSHSTGDGIPDRFSGSSSGAERYLTISSLQSEDEADYYCGVGDTIKEQFVYVFGGGTKLTVLG"
val = "binds"

[[record]]
binder = "humanized #23-57-137-1 antibody, H chain version a, L chain version m (antibody, V domains shown, Human Cγ1 and human Cλ C regions; Expressed in COS-7 for ELISA and in CHO for BIACORE; also called hMBCm) VH: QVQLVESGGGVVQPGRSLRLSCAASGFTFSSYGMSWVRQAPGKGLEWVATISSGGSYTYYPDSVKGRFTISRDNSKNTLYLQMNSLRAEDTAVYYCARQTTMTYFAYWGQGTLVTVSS VL: QLVLTQSPSASASLGASVKLTCTLSSQHSTYTIEWYQQQPEKGPRYLMDLKQDGSHSTGDGIPDRFSGSSSGAERYLTISSLQSEDEADYYCGVGDTIKEQFVYVFGGGTKLTVLG"
val = "binds"

